Screen- Human/No Protein listing for selected molecules.
test system: full length human vWF; assay: 3-point dot blot screen, full length human vWF; format: binding; conditions: 20 nM full length human vWF, ratio of fraction of aptamer bound with target protein to fraction bound without protein
measurementKind: Screen- Human/No Protein

{"molecule": "AMX237.F6: DNA SELEX 2 aptamer clone (nucleic acid, DNA, backbone not given here, DNA SELEX 2 aptamer clone) DNA: CTACCTACGATCTGACTAGCTCCAGTGTTTTATCTAATAACCGTGCGGTGCCTCCGTGATGCTTACTCTCATGTAGTTCC", "measuredResult": 1.20}
{"molecule": "AMX237.E5: DNA SELEX 2 aptamer clone (nucleic acid, DNA, backbone not given here, DNA SELEX 2 aptamer clone) DNA: CTACCTACGATCTGACTAGCTTTCAGTCTTCTACATTTATAGGGTTTGGCATTGGGTCTGGCTTACTCTCATGTAGTTCC", "measuredResult": 0.97}
{"molecule": "AMX238.A3: DNA SELEX 2 aptamer clone (nucleic acid, DNA, backbone not given here, DNA SELEX 2 aptamer clone) DNA: CTACCTACGATCTGACTAGCTCAAAGTATTACTTATTGGCAATAAGTCGTTTACTCTATAGCTTACTCTCATGTAGTTCC", "measuredResult": 1.36}
{"molecule": "AMX238.D8: DNA SELEX 2 aptamer clone (nucleic acid, DNA, backbone not given here, DNA SELEX 2 aptamer clone) DNA: CTACCTACGATCTGACTAGCTCCAGTGTTTTATCCAACAACCGTGCGGTGCCTCCGTGAGCTTACTCTCATGTAGTTCC", "measuredResult": 2.02}
{"molecule": "AMX237.D5: DNA SELEX 2 aptamer clone (nucleic acid, DNA, backbone not given here, DNA SELEX 2 aptamer clone) DNA: CTACCTACGATCTGACTAGCTTGGTAGCGACACTGTGGAGCTGCGGTTTGGTTGACGTCAGCTTACTCTCATGTAGTTCC", "measuredResult": 1.41}
{"molecule": "AMX237.F5: DNA SELEX 2 aptamer clone (nucleic acid, DNA, backbone not given here, DNA SELEX 2 aptamer clone) DNA: CTACCTACGATCTGACTAGCTTTTAGTCTTCCACATTTATAGGGTTTGGCATTGGGTCTGGCTTACTCTCATGTAGTTCC", "measuredResult": 0.99}
{"molecule": "AMX236.A12: DNA SELEX 2 aptamer clone (nucleic acid, DNA, backbone not given here, DNA SELEX 2 aptamer clone) CTACCTACGATCTGACTAGCTTGGTAGCGACTCTGTGGAGCTGCGGTTTGGTCGACGTCAGCTTACTCTCATGTAGTTCC", "measuredResult": 2.64}
{"molecule": "AMX237.F12: DNA SELEX 2 aptamer clone (nucleic acid, DNA, backbone not given here, DNA SELEX 2 aptamer clone) DNA: CTACCTACGATCTGACTAGCTTGGTAGCGATTTTGTGGAGCTGCGGTTTGGTCGACGTCAGCTTACTCTCATGTAGTTCC", "measuredResult": 1.95}
{"molecule": "AMX236.E2: DNA SELEX 2 aptamer clone (nucleic acid, DNA, backbone not given here, DNA SELEX 2 aptamer clone) CTACCTACGATCTGACTAGCGGAATGAGTATGCTGATGGATTGCTCAGGTCTGCTGGCTGCTTACTCTCATGTAGTTCC", "measuredResult": 0.93}
{"molecule": "AMX238.A11: DNA SELEX 2 aptamer clone (nucleic acid, DNA, backbone not given here, DNA SELEX 2 aptamer clone) DNA: CTACCTACGATCTGACTAGCGGAATGAGAGTGTTGGTGGATTGCTCAGGTCTGCTGGCTGCTTACTCTCATGTAGTTCC", "measuredResult": 0.85}

Source: patent US7998940B2
